ASSAYED_SYSTEM: T1, hK1 (human tissue kallikrein 1), recombinant (human, UniProt P06870 25-262)
T1 construct: Expressed in P. pastoris from KLK1 cDNA and purified; enzymatically active; also called KLK1; Recombinant (Pichia) Kallikrein
METHOD_SUMMARY: SPR
MEASURED_QUANTITY: Kd (nM)
// note: answer is a bare numeric in nM

Noted for M0102-G11 (Fab, V domains shown) VH: EVQLLESGGGLVQPGGSLRLSCAASGFTFSRYMMEWVRQAPGKGLEWVSGISPSGGTTKYADSVKGRFTISRDNSKNTLYLQMNSLRAEDTAVYYCTRGGYNNYYYALDVWGQGTTVTVSS VL: DIQMTQSPDTLSLSPGERATLSCRASESVSSSYFAWYQQKRGQAPRLLIYGASRRVTGIPDRFSGSGSGTDFTLTITRLEPEDFAVYYCQQYGGSPRSFGQGTKVEIKR : its Kd reads 24.8

Continue with the next binder.
Short answer for M0124-A01 (Fab, V domains shown) VH: EVQLLESGGGLVQPGGSLRLSCAASGFTFSNYPMYWVRQAPGKGLEWVSRIGPSGGHTDYADSVKGRFTISRDNSKNTLYLQMNSLRAEDTAVYYCARAGVWSGLDYWGQGTLVTVSS VL: DIQMTQSPSSLSASVGDRVTITCRASQSITGYLNWYQQKPGKAPKLLIYAASSLQSGVPSRFSGSGSGTDFTLSISSLQPEDFATYYCQQSYSTPYTFGQGTKLEIKR : Kd was 33.9
